Experiment: Selectivity index, ratio of IC50 for human HEK293 cells to IC50 for chloroquine-resistant Plasmodium falciparum Dd2
Assay type: toxicity, cell-based
Settings: read-out: Ratio IC50
Where a name gives a salt, the structure may show the parent alone.
selectivity ratio less than 50 is Met; selectivity ratio greater than or equal to 50 is Not met.

{"compound": "C[N+]1=C2C=C(N/C=C/c3ccc(O)cc3)C(=O)c3[nH]cc(c32)CC1", "classification": "Not met"}
{"compound": "Cn1cc2c3c1C(=O)C(NCCc1ccc(O)cc1)=CC3=NCC2 [MAKALUVAMINE K TFA SALT]", "classification": "Met"}
{"compound": "Cn1cc2c3c1C(=O)c1[nH]cc(-c4ccc(O)cc4)c1C3=[N+](C)CC2 [TSITSIKAMMAMINE C TRIFLUROACETATE]", "classification": "Not met"}
{"compound": "C[N+]1=C2C=C(NCCc3ccc(O)cc3)C(=O)c3[nH]cc(c32)CC1.O=C([O-])C(F)(F)F [MAKALUVAMINE J TFA SALT]", "classification": "Not met"}
{"compound": "CN1CCc2cn(C)c3c2C1=CC(=O)C3=O", "classification": "Not met"}
